test: Drug level in CD1 mouse whole blood at 2 umol, ip after 6 hrs by HPLC/MS; assay type: ADME, organism-based; details: read-out: Drug uptake

| compound | concentration at 6 h (µM) |
| --- | --- |
| CC1(C)CC[C@]2(C(=O)OC(=O)[C@]34CCC(C)(C)C[C@H]3[C@H]3C(=O)C=C5[C@@]6(C)C=C(C#N)C(=O)C(C)(C)[C@@H]6CC[C@@]5(C)[C@]3(C)CC4)CC[C@]3(C)[C@H](C(=O)C=C4[C@@]5(C)C=C(C#N)C(=O)C(C)(C)[C@@H]5CC[C@]43C)[C@@H]2C1 | 52 |
| CC1(C)CC[C@]2(C(=O)O)CC[C@]3(C)[C@H](C(=O)C=C4[C@@]5(C)C=C(C#N)C(=O)C(C)(C)[C@@H]5CC[C@]43C)[C@@H]2C1 [BARDOXOLONE] | 19 |
